Value source: patent US20250313548A1

- ASSAY_SYSTEM: human, KCNT1 (Homo sapiens (Human), UniProt Q5JUK3)
- Sequence (Q5JUK3 whole entry): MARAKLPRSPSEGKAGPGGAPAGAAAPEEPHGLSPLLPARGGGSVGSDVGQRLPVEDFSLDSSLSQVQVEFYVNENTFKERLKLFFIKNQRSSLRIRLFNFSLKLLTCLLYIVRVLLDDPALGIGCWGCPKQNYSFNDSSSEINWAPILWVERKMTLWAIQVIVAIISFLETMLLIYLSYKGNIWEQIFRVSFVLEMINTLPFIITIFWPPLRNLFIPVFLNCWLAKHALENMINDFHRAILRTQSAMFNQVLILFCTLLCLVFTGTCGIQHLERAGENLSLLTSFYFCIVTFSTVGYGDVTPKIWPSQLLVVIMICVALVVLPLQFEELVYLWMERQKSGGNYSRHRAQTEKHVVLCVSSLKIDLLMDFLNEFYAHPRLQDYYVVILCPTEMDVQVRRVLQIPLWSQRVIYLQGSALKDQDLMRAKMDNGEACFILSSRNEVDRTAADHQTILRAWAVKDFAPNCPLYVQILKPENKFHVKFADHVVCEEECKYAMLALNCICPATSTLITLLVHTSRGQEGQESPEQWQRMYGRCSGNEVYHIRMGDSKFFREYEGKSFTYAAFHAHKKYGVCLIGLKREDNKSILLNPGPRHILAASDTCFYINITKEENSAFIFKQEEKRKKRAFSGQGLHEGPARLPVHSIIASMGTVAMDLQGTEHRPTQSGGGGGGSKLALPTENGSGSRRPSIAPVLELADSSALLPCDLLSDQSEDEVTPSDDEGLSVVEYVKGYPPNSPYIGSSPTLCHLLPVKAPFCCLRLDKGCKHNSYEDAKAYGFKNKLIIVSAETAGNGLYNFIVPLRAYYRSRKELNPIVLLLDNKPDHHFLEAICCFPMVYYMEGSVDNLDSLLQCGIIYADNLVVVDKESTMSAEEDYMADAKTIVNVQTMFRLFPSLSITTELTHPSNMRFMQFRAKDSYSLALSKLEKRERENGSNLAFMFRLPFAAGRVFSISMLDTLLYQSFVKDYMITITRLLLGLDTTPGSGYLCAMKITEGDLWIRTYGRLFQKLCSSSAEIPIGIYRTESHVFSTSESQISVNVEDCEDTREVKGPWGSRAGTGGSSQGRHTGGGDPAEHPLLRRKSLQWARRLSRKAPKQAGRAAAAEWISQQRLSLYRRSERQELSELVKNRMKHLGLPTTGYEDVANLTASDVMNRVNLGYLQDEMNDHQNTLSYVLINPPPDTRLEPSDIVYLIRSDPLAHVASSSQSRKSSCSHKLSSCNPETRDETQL
- PROTOCOL: FLIPR Tl/K Flux Assay
- ASSAY_SETUP: HEK293 cells stably expressing human KCNT1; Tl+ flux stimulated with EC80 of agonist Loxapine
Parameter IC50: see the listing below.
PROPERTY_MEASURED: IC50

• O=C(NC1CCCc2nn(-c3ccnc(C(F)(F)F)c3)cc21)c1ccccn1 (racemic) = > 1 µM
• COc1cc(C2=NC3C(NC(=O)c4cccc(C#N)c4)CCCCC3N2)ccn1 (stereo not shown) = > 1 µM
• Cc1cc(C#N)cc(C(=O)NC2CCn3nc(-c4ccnc(C5CC5)c4)cc32)c1 (stereo not shown) [Compound I-306a] = < 0.25 µM
• O=C(N[C@H]1CCCn2nc(-c3ccnc(C(F)(F)F)c3)nc21)c1cncc(C(F)(F)F)n1 [Compound I-215a] = < 0.25 µM
